EXPERIMENT DESCRIPTION: endothelial E-selectin expression blockers – imaging, HUVEC, immunofluorescence, MLSMR starter and 10KST1 sets, primary screen (AID 487);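 further: 100% = median nuclei count of all wells on the same plate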
MEASUREMENT SETUP: HUVEC TNFalpha-induced E-selectin immunofluorescence imaging, at 2 µM; measured here: cell number, toxicity
QUANTITY NAME: nuclei count (%)
Your answer is read as %, so omit the unit and give the number.

# annotated cases, reported nuclei count shown
## Task # lookup: nuclei count of O=C(O)CCC1(C(=O)O)OCCc2ccccc21 (stereo unspecified)
## Result 118

## Task Bench note: what nuclei count did `CS(=O)(=O)N(CC(=O)NC1CC1)c1cccc(F)c1` show?
## Result 113

## Task If you can, please state the reported nuclei count value of `O=C(O)c1cccc(COCC(F)(F)C(F)F)c1` .
## Result 102

## Task Which value of nuclei count has been reported for CCCCC(NC(C)=O)c1nc2ccccc2n1CCC (stereo unspecified) in the records?
## Result 94.3

## Task Which nuclei count is reported for this compound? `Cc1cc(C)n(CCCNC(=O)c2ccc3c(c2)NC(=O)CS3)n1`
## Result 106

Further cases:
## Task Given the entry `CCOc1ccc2nc(N3CCC(C(=O)N4CCN(C5CCCCC5)CC4)CC3)sc2c1` , report its measured nuclei count.
## Result 107

----------
Form field: inhibition (one value per entry).
EXPERIMENT DESCRIPTION: TLR3 IRF3 reporter activation blockers – cell-based, poly I:C stimulus, luciferase, 10K MLSCN set, primary screen (AID 602277)
MEASUREMENT SETUP: HEK293-TLR3 RL24 IRF3 luciferase reporter, at 10 µM, stronger effect = higher value
Just the number please, in %, no unit attached.

## Task Given the compound `Cc1sc2ncnc(Oc3ccc(-n4ccnc4)cc3)c2c1C` , what is its reported inhibition?
## Result -14.4

## Task Could you tell me which inhibition is on file for `CCn1nnnc1SCC(=O)N1CCOCC1` ?
## Result 8.47

## Task Entry under review: `CC(=O)NC1(c2nnnn2CCOC(=O)Nc2ccc(Cl)cc2)CCCCC1` . Reported inhibition?
## Result 8.82

## Task // returns reported inhibition for input O=C1CN(C(=O)CN2CCCC2)C(c2ccccc2)c2cc(Br)ccc2N1 (stereo not given)
## Result 21.9

## Task Fill blank: measured inhibition of the compound `Cn1c(=O)c2ccccc2n(Cc2ccccc2F)c1=O` is ____.
## Result 65.6

## Task Which measured inhibition value corresponds to `COc1ccc(-c2nc(SC)n(S(=O)(=O)c3ccccc3)n2)cc1` ?
## Result -119

## Task I would be grateful if you could share the reported inhibition for `c1ccc(-c2cn3c4c(sc3n2)CCCC4)cc1` .
## Result 71.3

## Task Need inhibition of `O=C(c1ccc(Br)o1)N(Cc1ccccc1)c1ccccn1` , thanks.
## Result -0.317

## Task Query: inhibition; subject: `O=S(=O)(NCc1ccccn1)c1ccc2c(c1)OCCO2`
## Result 5.59

## Task // lookup inhibition for `COc1ccc(S(=O)(=O)NCCCN2CCOCC2)c2ccccc12`
## Result 19.6

Continuing:
## Task # get_value(readout='inhibition', item= `COc1cccc(NC(=O)C2CCN(c3ncccn3)CC2)c1` )
## Result -6.34

## Task Entry `Nc1cccc2c1C(=O)N(c1ccccc1)C2=O` : reported inhibition = ?
## Result -40.4

## Task Entry under review: `COc1ccccc1-n1nnnc1SCc1cc2c(cc1Br)OCO2` . Reported inhibition?
## Result 22.9

## Task // returns reported inhibition for input CCOC(=O)C1CCCN(C(=O)c2cc3c(C)nc4ccccc4c3o2)C1 (stereo not given)
## Result 5.32

## Task Request the reported inhibition associated with `O=C(CSc1nc(-c2ccc(F)cc2)cs1)N1CCOCC1`
## Result -106

## Task Item under review: c1cc2c(cc1C1CCCN1)OCCCO2 (stereo not given) . Reported inhibition?
## Result -8.78

## Task // returns reported inhibition for input `O=C(COc1ccccc1)Nc1ccccc1N1CCN(c2ccccc2)CC1`
## Result 3.18

## Task If you can, please state the reported inhibition value of `c1ccc(-c2nnc(CN3CCC4(CC3)OCCO4)o2)cc1` .
## Result 10.2

## Task Which inhibition is listed for `CC(C)OC(=O)CSc1nnc(-c2ccco2)n1N` ?
## Result 17

----------
// values below are reported NADPH fluorescence slope
SYSTEM NAME: Voltage-gated potassium channel subunit beta-2 (Rattus norvegicus) (UniProt P62483)
Sequence (P62483 whole entry, looked up): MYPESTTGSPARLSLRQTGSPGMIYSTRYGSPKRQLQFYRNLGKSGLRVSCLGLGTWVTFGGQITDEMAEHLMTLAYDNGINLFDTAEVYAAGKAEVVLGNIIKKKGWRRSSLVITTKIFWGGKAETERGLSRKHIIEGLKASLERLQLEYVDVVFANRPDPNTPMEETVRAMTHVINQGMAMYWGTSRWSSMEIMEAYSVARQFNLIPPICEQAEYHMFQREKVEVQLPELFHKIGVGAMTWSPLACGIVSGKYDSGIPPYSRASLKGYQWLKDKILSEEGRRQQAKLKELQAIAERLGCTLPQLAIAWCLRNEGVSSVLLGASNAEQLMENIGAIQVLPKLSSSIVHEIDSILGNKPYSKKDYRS
EXPERIMENT DESCRIPTION: enhancers of rat Kvbeta2 NADPH turnover – biochemical, NADPH fluorescence, primary screen (AID 623);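 further: fluorescence intensity change per second fitted from 20 to 320 s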
MEASUREMENT SETUP: Recombinant KvBeta, NADPH fluorescence decrease slope, 10 min; at 10 µM; stronger effect = lower value
Could you keep your reply to the number by itself?

Examples with their reported NADPH fluorescence slope follow.
## Task # input compound: `NC(=O)c1c(NC(=O)Cc2cccs2)sc2c1CCC2` ; wanted: its NADPH fluorescence slope
## Result -6.1e-05

## Task # input compound: `O=C(CSc1nc2ccccc2[nH]1)c1ccc2c(c1)OCO2` ; wanted: its NADPH fluorescence slope
## Result -1.2e-05

## Task Fill blank: measured NADPH fluorescence slope of the compound `O=C(Cn1cnc2c(cnn2-c2ccc(F)cc2)c1=O)N1CCN(c2ccccc2)CC1` is ____.
## Result -2.6e-06

New cases:
## Task Give the measured NADPH fluorescence slope of `Cc1nnc(SCc2nnc(-c3ccccc3Br)o2)n1-c1ccccc1` .
## Result -4e-05

## Task NADPH fluorescence slope for `COC(=O)c1ccc(CSc2nnnn2Cc2ccccc2)cc1` ?
## Result 3.4e-06

## Task Request the reported NADPH fluorescence slope associated with `COc1ccc(S(=O)(=O)N(C)c2ccc(C(=O)N3CCOCC3)cc2)cc1`
## Result -0.000149

----------
SYSTEM NAME: Voltage-gated potassium channel subunit beta-2 (Rattus norvegicus) (UniProt P62483)
EXPERIMENT DESCRIPTION: enhancers of rat Kvbeta2 NADPH turnover – biochemical, NADPH fluorescence, primary screen (AID 623);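 further: fluorescence intensity change per second fitted from 20 to 320 s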
MEASUREMENT SETUP: Recombinant KvBeta, NADPH fluorescence decrease slope, 10 min; at 10 µM; stronger effect = lower value
QUANTITY NAME: NADPH fluorescence slope
Lab note: record just the number, no unit beside it.

## Task Look up NADPH fluorescence slope: CC1=C(C(=O)OC(C)C)C(C2CC=CCC2)NC(=O)N1 (centres undefined)
## Result 1.4e-05

Next:
## Task Which NADPH fluorescence slope is reported for this molecule? O=C(CSc1nnc(-c2ccco2)n1CC1CCCO1)NC1CCCC1 (centres undefined)
## Result -5.1e-05

## Task I'd like to know its NADPH fluorescence slope. The molecule in question is `C/C(Cl)=C\Cn1c(Nc2ccc(C)cc2)nc2c1c(=O)n(C)c(=O)n2C`
## Result -4.2e-05

## Task Look up NADPH fluorescence slope for this molecule: `Cc1ccc(Nc2cc(C)nc3ncnn23)c(Cl)c1`
## Result 4.8e-06

## Task May I ask what NADPH fluorescence slope has been recorded for `c1ccc(-n2nnnc2OCCOc2nnnn2-c2ccccc2)cc1` ?
## Result -6.2e-05

## Task Return reported NADPH fluorescence slope; argument: `Fc1cccc(Nc2ncnc3c2cnn3-c2ccccc2)c1`
## Result 4.4e-06

## Task Which NADPH fluorescence slope value is on record for `NC(=O)C1(N2CCCCC2)CCN(C(=O)Nc2ccccc2C(F)(F)F)CC1` ?
## Result 6.2e-06

----------
EXPERIMENT DESCRIPTION: inhibitors of TNFa-induced NFkB p65 translocation, primary screen, imaging, HUVEC, MLSMR starter and 10KST1 sets (AID 438);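 further: compound added about 3h40 before a 20 min TNFalpha stimulation; signal is the nuclear over cytoplasmic p65 intensity ratio per well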
MEASUREMENT SETUP: HUVEC TNFa-induced p65 nuclear translocation; at 2 µM, stronger effect = higher value, 0% TNFa-plus-vehicle, 100% no-TNFa wells
Activity calls are given as the source filed them.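 Rule for the calls: active = inhibition above 20% together with a positive visual image hit; inconclusive = visual image hit but inhibition not above 20%; inactive = no visual image hit.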
QUANTITY NAME: inhibition

Examples from the recorded data:
## Task Reported inhibition, molecule `COC(=O)c1ccc(Oc2nc(NC(C)C)nc(N(C)C)n2)cc1` : ____
## Result 28.3% (inactive)

## Task Which inhibition reading was recorded for the molecule `CCn1c(CNc2ccc(OC)cc2)nnc1SCC(=O)c1ccc(OC)cc1` ?
## Result -16.9% (inactive)

## Task Data request, read-out inhibition, for `O=C(Nc1ccc2oc(-c3ccncc3)nc2c1)c1cccs1`
## Result 108% (active)

## Task Look up inhibition: `O=C(Nc1ccc(Cc2ccncc2)cc1)C1CC1`
## Result 2.9% (inactive)

## Task What measured inhibition goes with Cc1ccc(S(=O)(=O)N2CCN(C(=O)CN3CCOCC3)C2C(C)C)cc1 (stereo not drawn) ?
## Result -5% (inactive)

## Task // query inhibition value for entry `Cc1ccc(C)n1-n1c(C)nc2sc(-c3ccccc3)cc2c1=O`
## Result -0.6% (inactive)

---
## Task Which inhibition is listed for `Oc1c(Cl)cc(Cl)c2c1NCCC2` ?
## Result 0.4% (inactive)

## Task // query inhibition value for entry `CN(C)S(=O)(=O)N1CCN(C(=O)N(c2ccccc2)c2ccccc2)CC1`
## Result -3.3% (inactive)

## Task Field request: inhibition | item: `COc1cc(=O)[nH]c(SCc2c(F)c(F)c(F)c(F)c2F)n1`
## Result 2.2% (inactive)
